# system-tested: UniProt:P23458
# Sequence (P23458 whole entry): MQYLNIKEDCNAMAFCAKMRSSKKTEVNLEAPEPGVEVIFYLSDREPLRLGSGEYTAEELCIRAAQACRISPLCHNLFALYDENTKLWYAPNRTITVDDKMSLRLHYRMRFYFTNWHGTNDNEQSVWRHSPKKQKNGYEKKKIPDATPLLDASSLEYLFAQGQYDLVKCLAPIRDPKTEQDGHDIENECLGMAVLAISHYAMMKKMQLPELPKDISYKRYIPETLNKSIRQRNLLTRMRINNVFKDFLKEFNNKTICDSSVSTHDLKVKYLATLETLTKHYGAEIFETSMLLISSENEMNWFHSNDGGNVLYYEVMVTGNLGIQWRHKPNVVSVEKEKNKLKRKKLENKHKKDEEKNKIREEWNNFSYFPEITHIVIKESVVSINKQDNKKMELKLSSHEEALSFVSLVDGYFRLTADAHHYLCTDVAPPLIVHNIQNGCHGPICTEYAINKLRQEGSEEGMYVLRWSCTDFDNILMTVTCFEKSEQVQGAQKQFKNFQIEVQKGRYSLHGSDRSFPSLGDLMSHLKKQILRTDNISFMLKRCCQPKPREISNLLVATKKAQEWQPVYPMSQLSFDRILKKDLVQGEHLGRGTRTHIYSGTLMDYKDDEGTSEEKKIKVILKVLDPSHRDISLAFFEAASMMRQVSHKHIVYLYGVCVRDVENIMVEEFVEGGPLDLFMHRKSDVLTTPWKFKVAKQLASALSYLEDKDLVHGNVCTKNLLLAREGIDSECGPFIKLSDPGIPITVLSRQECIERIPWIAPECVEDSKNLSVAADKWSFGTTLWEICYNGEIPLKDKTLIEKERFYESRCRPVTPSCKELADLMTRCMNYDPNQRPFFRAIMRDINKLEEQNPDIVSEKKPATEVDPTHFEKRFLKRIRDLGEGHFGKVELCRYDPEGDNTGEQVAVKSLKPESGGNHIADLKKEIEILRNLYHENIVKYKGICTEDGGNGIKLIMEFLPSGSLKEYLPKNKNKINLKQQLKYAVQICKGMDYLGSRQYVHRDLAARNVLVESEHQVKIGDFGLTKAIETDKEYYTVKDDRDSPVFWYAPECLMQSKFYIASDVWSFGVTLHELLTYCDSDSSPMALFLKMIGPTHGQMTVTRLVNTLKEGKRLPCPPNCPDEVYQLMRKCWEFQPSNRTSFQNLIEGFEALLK
# assay-overview: Inhibition of JAK1 in human whole blood assessed as inhibition of IL-6-induced pSTAT1
Answer each item with its documented pIC50.
One number for each entry, as −log10 of the molar value.

{"columns": ["molecule", "pIC50"],
 "data": [
  ["O=C(Nc1nc2cccc(-c3ccc(CN4CCC(F)(F)CC4)cc3)n2n1)C1CC1", 5.56],
  ["O=C(Nc1nc2cccc(-c3ccc(CNC4CCS(=O)(=O)C4)cc3)n2n1)C1CC1 (centres undefined)", 5.21],
  ["Nc1nc2cccc(-c3ccc(CN4CCS(=O)(=O)CC4)cc3)n2n1", 4.92]
]}

# ---- query molecule ----
**Query** Note down pIC50 recorded for O=C(Nc1nc2cccc(-c3ccc(CNC(=O)C(F)(F)F)cc3)n2n1)C1CC1
**Result** 5.35
